The values you see were collected from patent US8372967B2.

The reader will find reported % Inhibition values listed item by item below.
Tested on: PTP1B mRNA
measurement-protocol: Dose response for human PTP1B in HuVEC cells, PPS 198 and PPS 3000 (Tables 86, 87)
Assay type: cell-based
run-conditions: PPS 198, 1.11 nM
Strand notation (5' to 3'): a small letter for the sugar, then the base; units joined by * are phosphorothioate-linked, units joined directly phosphodiester-linked; [ ] holds rarer units or linkages, { } end groups; capitals alone tell only the bases. e = 2'-O-(2-methoxyethyl) (MOE); [5mC] = 5-methylcytosine; d = 2'-deoxy (DNA)

Some entries whose results are on file:
| substance | % Inhibition |
| --- | --- |
| 399096 (eT*eG*d[5mC]*dT*d[5mC]*dG*dA*dA*d[5mC]*dT*d[5mC]*d[5mC]*eT*eT; antisense) [compound 399096] | 3% |
| 399315 (antisense eG*eG*d[5mC]*dA*dA*d[5mC]*dT*dT*d[5mC]*dA*dA*d[5mC]*e[5mC]*eT) [compound 399315] | 0% |

Here is the next item to consider.
[in] # input substance: 399132 (eG*eG*dG*d[5mC]*dT*dG*dA*dG*dT*dG*dA*d[5mC]*e[5mC]*e[5mC]; antisense) [compound 399132] ; wanted: its % Inhibition
[out] 0%
